target: UniProt:P11309; assay: Measurement of pim-1 kinase inhibitory activity (fluorescent substrate peptide, capillary electrophoresis); assay type: biochemical; conditions: 0.1 μM of each compound, 30 μM ATP, 1.5 μM substrate peptide, room temperature 2 hours; Table 2
Label not met if inhibition at 0.1 µM falls below 90%; label met in every other case.

Some entries whose results are on file:
molecule	classLabel
COc1ccc2c(c1C1CCNCC1)O/C(=C\c1n[nH]c3ccccc13)C2=O	not met
COc1ccc2c(c1CN1CCN(C)CC1)O/C(=C\c1n[nH]c3ccccc13)C2=O	not met
O=C1/C(=C/c2n[nH]c3ccc(Br)cc23)Oc2c1ccc(O)c2CN1CCNCC1	met
O=C1/C(=C/c2n[nH]c3ccccc23)Oc2c1ccc(O)c2C(=O)N1CCNCC1	not met
O=C1/C(=C/c2n[nH]c3ccc(F)cc23)Oc2c1cc(Cl)c(O)c2CN1CCNCC1	not met
COc1ccc2c(c1C#CCCC1CCNCC1)O/C(=C\c1n[nH]c3ccccc13)C2=O	not met

IN: # bool: inhibition at 0.1 µM of COc1ccc2c(c1/C=C/CC1CCNCC1)O/C(=C\c1n[nH]c3ccccc13)C2=O >= 90%
OUT: not met

IN: O=C1/C(=C/c2n[nH]c3ccccc23)Oc2c1ccc(OCCOc1ccccc1)c2CN1CCNCC1 , same question.
OUT: met

IN: Same again, this time with COc1ccc2c(c1/C=C/C1CCNCC1)O/C(=C\c1n[nH]c3ccccc13)C2=O
OUT: not met

IN: Please answer likewise for COc1ccc2c(c1CN1CCNCC1)O/C(=C\c1n[nH]c3ncccc13)C2=O
OUT: met

###

Below: a set of entries, each annotated with reported inhibition at 0.1 µM.
molecular target: pim-1 kinase (Homo sapiens, UniProt P11309); experiment: Measurement of pim-1 kinase inhibitory activity (fluorescent substrate peptide, capillary electrophoresis); type: biochemical; details: 0.1 μM of each compound, 30 μM ATP, 1.5 μM substrate peptide, room temperature 2 hours; Table 1
Sequence (P11309 whole entry): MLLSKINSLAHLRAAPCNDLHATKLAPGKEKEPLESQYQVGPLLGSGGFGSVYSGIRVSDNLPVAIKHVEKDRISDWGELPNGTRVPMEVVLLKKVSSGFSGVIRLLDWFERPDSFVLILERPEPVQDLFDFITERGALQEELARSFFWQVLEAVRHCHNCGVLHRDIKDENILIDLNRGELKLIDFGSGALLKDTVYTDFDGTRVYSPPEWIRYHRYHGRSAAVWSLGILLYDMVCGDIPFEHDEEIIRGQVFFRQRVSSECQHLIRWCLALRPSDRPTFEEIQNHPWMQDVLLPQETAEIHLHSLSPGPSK
Counter-ions that a name gives are not always drawn.

molecule	inhibition at 0.1 µM
O=C1/C(=C/c2c[nH]c3nc(Cl)ccc23)Oc2c1ccc(O)c2CN1CCNCC1 [Compound A46, trihydrochloride]	99%
O=C1/C(=C/c2cn(S(=O)(=O)c3cccc(Cl)c3Cl)c3ccccc23)Oc2c1ccc(O)c2CN1CCNCC1 [Compound A38, dihydrochloride]	99%

IN: Could you share which inhibition at 0.1 µM value was measured for COc1ccc2c(c1CN1CCNCC1)O/C(=C\c1cn(S(=O)(=O)c3ccc(C)cc3)c3ccccc13)C2=O ?
OUT: 28%

IN: Same again, this time with O=C1/C(=C/c2c[nH]c3c([N+](=O)[O-])cccc23)Oc2c1ccc(O)c2CN1CCNCC1 [Compound A27, dihydrochloride]
OUT: 29%

IN: # repeat for O=C1/C(=C/c2c[nH]c3ccccc23)Oc2c1ccc(O)c2CN1CCSCC1
OUT: 19%

IN: Cool, now O=C1/C(=C/c2c[nH]c3ccccc23)Oc2c1cc(Cl)c(O)c2CN1CCNCC1 [Compound A12, dihydrochloride]
OUT: 81%

IN: Now the same for O=C1/C(=C/c2c[nH]c3ccccc23)Oc2c1ccc(O)c2CN1CCCNCC1
OUT: 46%

###

target: UniProt P11309; assay: Measurement of pim-1 kinase inhibitory activity (fluorescent substrate peptide, capillary electrophoresis); assay type: biochemical; conditions: 0.1 μM of each compound, 30 μM ATP, 1.5 μM substrate peptide, room temperature 2 hours; Table 2
Label scheme for inhibition at 0.1 µM: low (below 80%), middle (80% to below 90%), high (90% or more)

molecule	classLabel
COc1ccc2c(c1CN1CCOCC1)O/C(=C\c1n[nH]c3ccccc13)C2=O [Compound B33]	low

Now examine the next entry.
IN: State the class of the molecule shown: COc1ccc2c(c1/C=C\CCC1CCNCC1)O/C(=C\c1n[nH]c3ccccc13)C2=O [Compound B62]
OUT: low
